Below are GI50 values measured for HCT-15.

Compound: OC[C@H]1C[C@@H]2Cc3ccccc3N2N1
Output Unit: µM
Limit Operator: >
GI50: 100

Compound: O=C(NNC(=S)Nc1ccccc1)C12CC3CC(CC(C3)C1)C2
Output Unit: µM
Limit Operator: =
GI50: 7.28

Compound: CCC(CC)C(=O)OC[n+]1cccc(-c2c(COC(=O)NC(C)C)c(COC(=O)NC(C)C)c3n2CCC3)c1
Output Unit: µM
Limit Operator: >
GI50: 100

Compound: COc1ccc(/C=C2/S/C(=N\c3ccccc3)N(NC(=O)Cc3ccccc3)C2=O)cc1
Output Unit: µM
Limit Operator: >
GI50: 100

Compound: CC1NC(=O)C(C)C(c2ccccc2)N(N=O)C1c1ccccc1 (stereo not given)
Output Unit: µM
Limit Operator: =
GI50: 55.2

Compound: COc1c(C)c(O)c2c(c1C)OC(c1ccccc1)CC2=O (stereo not given)
Output Unit: µM
Limit Operator: =
GI50: 30.5

Compound: C[N+](C)(C)CCC(=O)CC[N+](C)(C)C
Output Unit: µM
Limit Operator: =
GI50: 19.2

Compound: COC(=O)c1ccc(C)cc1C1CN=NC12Cc1cccc(C)c1C2=O (stereo not given)
Output Unit: µM
Limit Operator: =
GI50: 47.2

Compound: COC1C(N)C(OC2C(Oc3cccc4c(O)c5c(=O)oc6ccc(C)c7c(=O)oc(c34)c5c67)OC(C)C(O)C2(C)O)OC(C)C1O (stereo not given)
Output Unit: µM
Limit Operator: =
GI50: 0.0925

Compound: Clc1ccc(-c2ccc(-c3nn4c(CNc5ccccc5)nnc4s3)o2)c(Cl)c1
Output Unit: µM
Limit Operator: =
GI50: 48.1

---

test system: KM-20L2; experiment: NCI tumour cell line growth inhibition, 48 h
Calls of active or inactive are those of the source. No stated cut-off is given here; in the data, active = GI50 up to about 1.1 µM and inactive = higher.
Outcome codes: active, inactive

Compound: CCOC(=O)C1S/C(=N\c2cccc(Cl)c2C)N=C1C (stereo not drawn)
Class: inactive

Compound: CC(C)(Oc1ccc(C(=O)c2ccc(Cl)cc2)cc1Cl)C(=O)N1CCN(c2ccccc2)CC1
Class: inactive

Compound: CC(O)CCC(=O)c1ccoc1 (stereo not drawn)
Class: inactive

Compound: CCOC(=O)C1=C(NC(C)(C)C)OCC1=O
Class: inactive

Compound: CC1=C2C3OC(=O)C(C)C3CCC2(C)C=C/C1=N\c1ccccc1 (stereo not drawn)
Class: inactive

Compound: C=CCc1cc2cccc(OC)c2oc1=O
Class: inactive

Compound: CCN(CC)CCCN(c1cc(OC)cc2nccnc12)S(=O)(=O)c1ccc(C)cc1
Class: inactive

Compound: NNC(=O)C(=O)NN=C(C(Cl)(Cl)CO)C(Cl)(Cl)CO
Class: inactive

Compound: COc1cc(/C=C/c2ccc(/C=C/c3cc(OC)c(OC)c(OC)c3)cc2)cc(OC)c1OC
Class: inactive

Compound: OCCCCCCOc1ccc(-c2cc(-c3ccccn3)nc(-c3ccccn3)c2)cc1
Class: active

Compound: N=C1c2ccccc2C(=O)c2c(NCCNCCO)ccc(O)c21
Class: inactive

Compound: CC(=O)NNc1nc(C)c(C(=O)NNC(=O)C(=O)Nc2ccc([N+](=O)[O-])cc2C#N)s1
Class: inactive

Compound: COC(=O)C(C(=O)C(=O)Nc1ccc(Br)cc1)c1nc2ccc(Cl)cc2nc1O (stereo not drawn)
Class: inactive

Compound: CCCCSC1CCSc2c1ccc1ccccc21 (stereo not drawn)
Class: inactive

Compound: c1ccc2c(C3NCCc4nc[nH]c43)cccc2c1 (stereo not drawn)
Class: inactive

Compound: COc1c(C)c(O)c2c(c1C)OC(c1ccccc1)CC2=O (stereo not drawn)
Class: inactive

Compound: CC(=O)OCc1c(C)c2ccccc2n1C(C)=O
Class: inactive

Compound: CCN(CC)c1cccc2c1/C(=N/O)CCCC2
Class: inactive

Compound: CC(C)(C)c1cc2c3c(c1)c(=O)c1cccc4c(O)c5cccc(c2=O)c5c-3c41
Class: inactive

Compound: COc1ccc(/C(=N\NC(=S)NN)C(c2ccc(OC)cc2)C2C(=O)Oc3ccccc32)cc1 (stereo not drawn)
Class: inactive

Compound: C=C1CC2(CCS(=O)(=O)c3ccccc32)OC1=O (stereo not drawn)
Class: inactive

Compound: Cc1cc2c(=O)cc(-c3ccc(C(=O)O)cc3)oc2c(C(=O)O)c1C
Class: inactive

Compound: CCOC(=O)/C=C/n1c2ccccc2c(=O)c2ccccc21
Class: inactive

---

system: K562; test: NCI tumour cell line growth inhibition, 48 h
The source made the active and inactive calls. Cut-off read from the data, not from the text of the source: active = GI50 up to about 1.1 µM and inactive = higher.
Outcome codes: T for active, F for inactive

Compound: COc1ccc(/C=C2\N/C(=N\N=C/C(O)C(O)C(O)C(O)CO)NC2=O)cc1 (stereo unspecified)
Class: F
--
Compound: NC(=O)COC(=O)c1c(Cl)nc2sccn12
Class: F
--
Compound: NNC(=O)C(=O)NN=C(C(Cl)(Cl)CO)C(Cl)(Cl)CO
Class: F
--
Compound: C=C1C(=O)OC2CC1CCC1(C)OC1CCC(C)=CCCC2(C)O (stereo unspecified)
Class: F
--
Compound: COc1nc(C(=O)O)c(Cl)c(OC)c1Cl
Class: F
--
Compound: COC(=O)/N=C(\NC(=O)OC)Nc1ccc(Oc2ccccc2)cc1NC=O
Class: T
--
Compound: COc1ccc(/C(=N\NC(=S)NN)C(c2ccc(OC)cc2)C2C(=O)Oc3ccccc32)cc1 (stereo unspecified)
Class: F
--
Compound: O=c1[nH]c2cc(C(F)(F)F)ccc2nc1CBr
Class: F
--
Compound: COc1ccc(/C=C(/C#N)C(N)=O)cc1OC
Class: F
--
Compound: O=C(OC1CC(n2cc(F)c(=O)[nH]c2=O)OC1CSC(=O)c1ccccc1)c1ccccc1 (stereo unspecified)
Class: F
--
Compound: CC(N)C(=O)OCN1C(=O)C2C3C=CC(C2C1=O)C1C2C(=O)N(COC(=O)C(C)N)C(=O)C2C31 (stereo unspecified)
Class: F

---

system: A498; test: NCI tumour cell line growth inhibition, 48 h
Active and inactive are the calls of the source. Rule as the data show it: active = GI50 up to about 1.1 µM and inactive = higher.
Outcome codes: Y (active), N (inactive)

Compound: O=c1nc(NC(c2ccccc2)(c2ccccc2)c2ccccc2)ccn1CCCl
Class: N

Compound: C=CCN1C[C@@H](C)N([C@@H](c2ccc(C(=O)N(CC)CC)cc2)c2cccc(OC)c2)C[C@@H]1C
Class: N

Compound: CN(CCO)Cc1ncccc1O
Class: N

Compound: COc1cc(C2c3cc4c(cc3OC(N3CCNCC3)C2C)OCO4)cc(OC)c1OC (stereo unspecified)
Class: Y

Compound: COC(=O)c1ccccc1C1CN=NC12Cc1c(C)ccc(C)c1C2=O (stereo unspecified)
Class: N

Compound: COc1ccc(OC)c2c(C(=O)O)c(C(C)c3ccccc3)ccc12 (stereo unspecified)
Class: N

---

system: LOX IMVI; assay: NCI tumour cell line growth inhibition, 48 h
Active and inactive are the calls of the source. Rule as the data show it: active = GI50 up to about 1.1 µM and inactive = higher. Where a SMILES comes first, the peptide text is derived from it. The star is where a group is joined. CH2Cl = ClC*
Outcome codes: 1 = active, -1 = inactive

Molecule: O=c1nc(NC(c2ccccc2)(c2ccccc2)c2ccccc2)ccn1CCCl
Assayed Target: LOX IMVI
Class: -1

Molecule: CCOC(=O)c1sc2nc1CSc1sc(=S)sc1SCc1nc(sc1C(=O)OCC)-c1nc(c(C(=O)OCC)s1)CSc1sc(=S)sc1SCc1nc-2sc1C(=O)OCC
Assayed Target: LOX IMVI
Class: -1

Molecule: N#Cc1cc2c(cc1C#N)SCCSCCCSCCS2
Assayed Target: LOX IMVI
Class: -1

Molecule: COC1C(N)C(OC2C(Oc3cccc4c(O)c5c(=O)oc6ccc(C)c7c(=O)oc(c34)c5c67)OC(C)C(O)C2(C)O)OC(C)C1O (stereo not given)
Assayed Target: LOX IMVI
Class: 1

Molecule: Brc1cccc(/N=N/N2CCCC2)c1
Assayed Target: LOX IMVI
Class: -1

Molecule: CC(N)C(=O)OCN1C(=O)C2C3C=CC(C2C1=O)C1C2C(=O)N(COC(=O)C(C)N)C(=O)C2C31 (stereo not given)
Assayed Target: LOX IMVI
Class: -1

Molecule: Cc1nsc2cc(Cl)n(C)c(=O)c12
Assayed Target: LOX IMVI
Class: -1

Molecule: COc1cc2c(c(OC)c1OC)-c1ccc(SC)c(=O)cc1[C@@H](NC(=O)c1ccc(Cl)cc1)CC2
Assayed Target: LOX IMVI
Class: 1

Molecule: COCCOc1cc(C)cc(/C=C(C)/C=C/C2=C(C)CCCC2(C)C)n1
Assayed Target: LOX IMVI
Class: -1

Molecule: CN(C)c1ccc2nc3c(C(=O)O)cc(O)c(O)c3[o+]c2c1
Assayed Target: LOX IMVI
Class: -1

Molecule: OC[C@H]1C[C@@H]2Cc3ccccc3N2N1
Assayed Target: LOX IMVI
Class: -1

Molecule: Clc1cc(OCC23CC4CC(CC(C4)C2)C3)nc(OCC23CC4CC(CC(C4)C2)C3)n1
Assayed Target: LOX IMVI
Class: -1

Molecule: CCC1OCCN1C(C)C (stereo not given)
Assayed Target: LOX IMVI
Class: -1

Molecule: C#CC(C)(C)OCCCCOc1cc(O)c2c(=O)c3ccccc3n(C)c2c1
Assayed Target: LOX IMVI
Class: -1

Molecule: CC(=O)NNC1=NN(C(C)=O)C2(S1)C(=O)Nc1ccc(Br)cc12 (stereo not given)
Assayed Target: LOX IMVI
Class: -1

Molecule: CC(=O)NC(CC(C)C)C(=O)NC(Cc1ccccc1)C(=O)CCl (stereo not drawn) (Ac-Leu-Phe-CH2Cl; configuration not given here)
Assayed Target: LOX IMVI
Class: -1

Molecule: OCCCCCCOc1ccc(-c2cc(-c3ccccn3)nc(-c3ccccn3)c2)cc1
Assayed Target: LOX IMVI
Class: 1

Molecule: N#CCN(Cc1ccccc1)[C@H]1CCC[C@]1(O)/C=C/c1ccc2c(c1)OCO2
Assayed Target: LOX IMVI
Class: -1

Molecule: C=CCc1cc2cccc(OC)c2oc1=O
Assayed Target: LOX IMVI
Class: -1

Molecule: CCC1CN2CCc3cc(OC)c(OC)cc3C2CC1CC1c2cc(OC)c(OC)cc2CCN1C(=O)C1CCCN1 (stereo not given)
Assayed Target: LOX IMVI
Class: -1

These measurements were taken from ChEMBL document CHEMBL1201862.
